All values here come from ChEMBL document CHEMBL3763112.

system: Aminopeptidase N (Sus scrofa)
Sequence (P15145 whole entry): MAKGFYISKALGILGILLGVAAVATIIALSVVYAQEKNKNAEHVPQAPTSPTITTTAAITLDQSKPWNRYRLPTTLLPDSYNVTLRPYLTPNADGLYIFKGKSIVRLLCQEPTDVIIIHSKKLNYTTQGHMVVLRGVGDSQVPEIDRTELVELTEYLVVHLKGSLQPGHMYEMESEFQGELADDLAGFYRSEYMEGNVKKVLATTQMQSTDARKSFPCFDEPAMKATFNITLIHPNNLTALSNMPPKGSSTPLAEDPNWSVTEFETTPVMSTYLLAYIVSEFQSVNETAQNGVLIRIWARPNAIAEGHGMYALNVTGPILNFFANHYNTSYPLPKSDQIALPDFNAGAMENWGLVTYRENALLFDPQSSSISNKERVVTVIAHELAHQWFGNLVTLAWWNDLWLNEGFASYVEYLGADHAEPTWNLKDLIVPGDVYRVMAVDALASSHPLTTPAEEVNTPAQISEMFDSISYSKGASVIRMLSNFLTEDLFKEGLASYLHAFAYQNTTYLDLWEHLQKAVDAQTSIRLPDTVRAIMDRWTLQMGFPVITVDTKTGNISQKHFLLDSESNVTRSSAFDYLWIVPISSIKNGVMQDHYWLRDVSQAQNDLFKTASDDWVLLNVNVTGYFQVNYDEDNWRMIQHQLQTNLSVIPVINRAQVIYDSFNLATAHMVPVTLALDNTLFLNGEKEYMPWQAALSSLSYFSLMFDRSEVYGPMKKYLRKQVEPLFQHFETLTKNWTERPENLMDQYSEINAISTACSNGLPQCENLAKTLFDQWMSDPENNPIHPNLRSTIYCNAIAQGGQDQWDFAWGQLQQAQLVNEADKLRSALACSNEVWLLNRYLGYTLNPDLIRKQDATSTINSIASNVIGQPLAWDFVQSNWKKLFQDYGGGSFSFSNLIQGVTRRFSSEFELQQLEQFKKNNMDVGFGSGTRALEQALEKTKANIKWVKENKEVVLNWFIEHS
pIC50: −log10 of the molar value.
metric: pIC50

Record excerpt, results attached:
{"entry-smiles": "COc1ccc(CNC(=O)N[C@@H](CC(C)C)C(=O)NO)c(OC)c1", "pIC50": 6.34}
{"entry-smiles": "Cc1cccc(C)c1NC(=O)N[C@@H](CC(C)C)C(=O)NO", "pIC50": 7.70}
{"entry-smiles": "CC(C)C[C@H](NC(=O)Nc1ccc(F)cc1F)C(=O)NO", "pIC50": 6.47}

(a) Cc1ccc(NC(=O)N[C@@H](CC(C)C)C(=O)NO)c(C)c1
(b) CC(C)C[C@H](NC(=O)NCc1ccc(F)cc1F)C(=O)NO
(c) CCc1cccc(CC)c1NC(=O)N[C@@H](CC(C)C)C(=O)NO
Q. Please give the order of these compounds when sorted by pIC50, largest value leading. In plain terms: list the labels in the order you were asked to.
A. c, a, b
(c: 7.52, a: 6.74, b: 6.48)
